Target: human ether-à-go-go-related gene (hERG) potassium channel (human);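 further: peak tail current of the secondary pulse compared with the same well before compound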
Sequence (Q12809 whole entry, looked up): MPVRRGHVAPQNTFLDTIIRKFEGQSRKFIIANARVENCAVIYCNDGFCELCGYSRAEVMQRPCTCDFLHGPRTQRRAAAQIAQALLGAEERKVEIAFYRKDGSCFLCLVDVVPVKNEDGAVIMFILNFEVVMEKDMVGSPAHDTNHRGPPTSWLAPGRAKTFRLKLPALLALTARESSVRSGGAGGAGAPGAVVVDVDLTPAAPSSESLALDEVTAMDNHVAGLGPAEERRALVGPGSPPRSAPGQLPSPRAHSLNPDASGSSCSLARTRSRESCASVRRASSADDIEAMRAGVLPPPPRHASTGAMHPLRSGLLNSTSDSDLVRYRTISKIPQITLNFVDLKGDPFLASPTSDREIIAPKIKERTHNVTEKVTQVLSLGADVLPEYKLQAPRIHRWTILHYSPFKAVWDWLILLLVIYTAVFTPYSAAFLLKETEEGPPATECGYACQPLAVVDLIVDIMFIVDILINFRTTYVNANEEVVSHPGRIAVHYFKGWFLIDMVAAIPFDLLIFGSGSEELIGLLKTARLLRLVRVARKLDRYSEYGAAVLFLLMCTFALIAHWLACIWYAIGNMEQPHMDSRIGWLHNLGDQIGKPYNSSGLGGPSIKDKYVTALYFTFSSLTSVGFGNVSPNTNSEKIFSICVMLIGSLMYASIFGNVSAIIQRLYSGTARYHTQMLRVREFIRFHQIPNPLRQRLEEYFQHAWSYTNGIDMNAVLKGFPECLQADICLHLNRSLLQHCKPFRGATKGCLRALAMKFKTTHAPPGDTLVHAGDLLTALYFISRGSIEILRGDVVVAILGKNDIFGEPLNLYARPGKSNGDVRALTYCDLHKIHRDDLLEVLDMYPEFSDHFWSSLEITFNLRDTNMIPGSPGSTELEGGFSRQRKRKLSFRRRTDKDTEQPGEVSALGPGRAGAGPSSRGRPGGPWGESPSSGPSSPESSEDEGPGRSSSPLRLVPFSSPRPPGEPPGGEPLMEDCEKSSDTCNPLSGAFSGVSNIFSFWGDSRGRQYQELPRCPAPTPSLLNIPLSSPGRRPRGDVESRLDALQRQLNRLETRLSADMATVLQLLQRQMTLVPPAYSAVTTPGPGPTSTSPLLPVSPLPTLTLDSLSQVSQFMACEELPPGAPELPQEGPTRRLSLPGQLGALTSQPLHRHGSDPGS
Assay: primary screen, population patch clamp on CHO cells stably expressing hERG; higher = less effect of the substance
Hit rate of the full screen: of about 310,000 compounds, about 14,000 (4.5%) showed an effect of 50% or more. Effects have a minus sign here. The sample as a whole holds a higher share of strong results than the screen did.
measurement_label: hERG current change (%, negative = inhibition) at 10uM (%)
Dear colleague, please return just the value in %, with no unit written.

[
  {
    "compound": "N#Cc1nc(-c2ccccc2Cl)oc1N1CCOCC1",
    "measured_value": -4.51
  }
]

Query block: For human ether-à-go-go-related gene (hERG) potassium channel (human), provide hERG current change (%, negative = inhibition) at 10uM of CCC(C)Nc1nc2c(c(=O)n(C)c(=O)n2C)n1Cc1ccc(Cl)cc1 (centres unmarked) please.
Result block: -7.45

Query block: For human ether-à-go-go-related gene (hERG) potassium channel (human), provide hERG current change (%, negative = inhibition) at 10uM of `CN(C)C1=NC[C@H](Cc2ccccc2)N1CCCC1CCCC1` please.
Result block: -71.2

Query block: For human ether-à-go-go-related gene (hERG) potassium channel (human), provide hERG current change (%, negative = inhibition) at 10uM of `Oc1ccc(-c2cccc(-c3ccc(O)cc3)c2)cc1` please.
Result block: 3.27

Query block: For human ether-à-go-go-related gene (hERG) potassium channel (human), provide hERG current change (%, negative = inhibition) at 10uM of `CC1(C)C/C(=N\NC(=S)Nc2ccccc2F)c2cc(O)ccc2O1` please.
Result block: -18.8

Query block: For human ether-à-go-go-related gene (hERG) potassium channel (human), provide hERG current change (%, negative = inhibition) at 10uM of `NC(=O)NC(=O)CSc1ccccc1` please.
Result block: 17.1

Query block: For human ether-à-go-go-related gene (hERG) potassium channel (human), provide hERG current change (%, negative = inhibition) at 10uM of `O=C(CCCc1nc2ccccc2s1)NCc1ccccc1F` please.
Result block: -20.2

----------
Biological target: human ether-à-go-go-related gene (hERG) potassium channel (human);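 further: peak tail current of the secondary pulse compared with the same well before compound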
Experiment: primary screen, population patch clamp on CHO cells stably expressing hERG; higher = less effect of the substance
Hit rate of the full screen: of about 310,000 compounds, about 14,000 (4.5%) showed an effect of 50% or more. The effect is printed as a negative number. This excerpt belongs to a sample that is enriched for strong results.
measurement_label: hERG current change (%, negative = inhibition) at 10uM (%)
Dear colleague, please return just the value in %, with no unit written.

Check out these entries, answers already filled in.
[
  {
    "compound": "COc1ccccc1NC(=O)N1CCN(c2ccc3nncn3n2)CC1",
    "system_under_test": "human ether-à-go-go-related gene (hERG) potassium channel (human)",
    "measured_value": -23.1
  },
  {
    "compound": "Cc1ccc(C(O)CN2C3=NCCN3c3ccccc32)cc1.Cl (centres unmarked)",
    "system_under_test": "human ether-à-go-go-related gene (hERG) potassium channel (human)",
    "measured_value": -61.1
  },
  {
    "compound": "O=C(Nc1ccccc1C(F)(F)F)N1CCN(c2ccc3nncn3n2)CC1",
    "system_under_test": "human ether-à-go-go-related gene (hERG) potassium channel (human)",
    "measured_value": -1.32
  }
]

Okay, next one:
Query block: For `Cc1ccc(CNC(=O)c2cc3c(s2)CN(Cc2ccccc2)C3)cc1.Cl` , what is its reported hERG current change (%, negative = inhibition) at 10uM?
Result block: 3.85

Origin of measurements: paper PMC4336329
